This collection of values is drawn from patent US20240116985A1.

Recorded Solubility by entry
- test summary: Solubility in PBS
- Type: physicochemical
Lab book: enter the figure in µM, no units written.

[[record]]
molecule = "CC(=O)N1CCC[C@]12CC=CCCCC1(CCCC=CCCCCCC[C@@](C)(C(=O)N[C@@H](Cc3cccc(F)c3)C(=O)N[C@@H](Cc3csc4ccccc34)C(=O)N[C@@H](CCC(N)=O)C(N)=O)NC(=O)[C@H](C(C)C)NC(=O)[C@H](Cc3ccccc3)NC(=O)[C@H](C)NC(=O)[C@H](C)NC(=O)[C@H](CC(N)=O)NC(=O)[C@H](CC(=O)O)NC1=O)NC(=O)[C@H](C)NC(=O)[C@H](CC(=O)O)NC2=O (stereo partly shown) [I-382]"
test_value = 10

[[record]]
molecule = "CC(=O)N1CCC[C@]12CC=CCCCC1(CCCC=CCCCOC(=O)N3CC[C@@](C(=O)N[C@@H](Cc4ccc5ccccc5c4)C(=O)N[C@@H](Cc4csc5ccccc45)C(=O)N[C@@H](CO)C(N)=O)(C3)NC(=O)[C@H]([C@@H](C)O)NC(=O)[C@H](Cc3ccccc3)NC(=O)[C@H](C)NC(=O)[C@H](C)NC(=O)[C@H]([C@@H](C)O)NC(=O)[C@H](CC(=O)O)NC1=O)NC(=O)[C@H](CC(C)(C)C)NC(=O)[C@H](CC(=O)O)NC2=O (stereo partly shown)"
test_value = 10

[[record]]
molecule = "CC(=O)N[C@@H](Cc1ccccc1)C(=O)N[C@@H](CC(=O)O)C(=O)N[C@@H](C)C(=O)N[C@]1(C)CCCCCCC=CCOC(=O)N2CC[C@@](C(=O)N[C@@H](Cc3ccccc3)C(=O)N[C@@H](Cc3c[nH]c4ccccc34)C(=O)N[C@@H](CCC(N)=O)C(N)=O)(C2)NC(=O)[C@H](C(C)C)NC(=O)[C@H](Cc2ccccc2)NC(=O)[C@H](C)NC(=O)[C@H](C)NC(=O)[C@H](Cc2ccc3ccccc3c2)NC(=O)[C@H](CC(=O)O)NC1=O"
test_value = 11

[[record]]
molecule = "CC(=O)N1CCC[C@]12CC=CCCCC1(CCCC=CCCCCCC[C@@](C)(C(=O)N[C@@H](Cc3ccccc3)C(=O)N[C@@H](C)C(=O)N[C@@H](CCC(N)=O)C(N)=O)NC(=O)[C@H](C(C)C)NC(=O)[C@H](Cc3ccccc3)NC(=O)[C@H](C)NC(=O)[C@H](C)NC(=O)[C@H](CC(=O)O)NC(=O)[C@H](CC(=O)O)NC1=O)NC(=O)[C@H](C)NC(=O)[C@H](CC(=O)O)NC2=O (stereo partly shown) [I-357]"
test_value = 46

[[record]]
molecule = "CC(=O)N1CCC[C@]12CC=CCCCC1(CCCC=CCCCCCC[C@@](C)(C(=O)N[C@@H](CC3CCCC3)C(=O)N[C@@H](Cc3csc4ccccc34)C(=O)N[C@@H](CCC(N)=O)C(N)=O)NC(=O)[C@H](C(C)C)NC(=O)[C@H](Cc3ccccc3)NC(=O)[C@H](C)NC(=O)[C@H](C)NC(=O)[C@H](CCC(=O)O)NC(=O)[C@H](CC(=O)O)NC1=O)NC(=O)[C@H](C)NC(=O)[C@H](CC(=O)O)NC2=O (stereo partly shown)"
test_value = 10


q: Dear colleague, I am looking for the recorded Solubility of the following molecule: CC(=O)N1CCC[C@]12CC=CCCCC1(CCCC=CCCCCCC[C@@](C)(C(=O)N[C@@H](Cc3ccccc3)C(=O)N[C@@H](Cc3csc4ccccc34)C(=O)N[C@@H](CCC(N)=O)C(N)=O)NC(=O)[C@H](CC(N)=O)NC(=O)[C@H](Cc3ccccc3)NC(=O)[C@H](C)NC(=O)[C@H](C)NC(=O)[C@H](CC(=O)O)NC(=O)[C@H](CC(=O)O)NC1=O)NC(=O)[C@H](C)NC(=O)[C@H](CC(=O)O)NC2=O (stereo partly shown) [I-344]
a: 44

q: Dear colleague, I am looking for the recorded Solubility of the following molecule: CC(=O)N1CCC[C@]12CC=CCCCC1(CCCC=CCCCOC(=O)N3CC[C@@](C(=O)N[C@@H](Cc4ccsc4)C(=O)N[C@@H](Cc4csc5ccccc45)C(=O)N[C@@H](CCC(N)=O)C(N)=O)(C3)NC(=O)[C@H](CC(N)=O)NC(=O)[C@H](Cc3ccccc3)NC(=O)[C@H](C)NC(=O)[C@H](C)NC(=O)[C@H](CC(=O)O)NC(=O)[C@H](CC(N)=O)NC1=O)NC(=O)[C@H](CC(C)(C)C)NC(=O)[C@H](CC(=O)O)NC2=O (stereo partly shown)
a: 50

q: Dear colleague, I am looking for the recorded Solubility of the following molecule: CCN(CC(=O)O)C[C@@H]1NC(=O)[C@H](CC(=O)O)NC(=O)C2(CCCC=CCCCOC(=O)N3CC[C@@](C(=O)N[C@@H](Cc4ccsc4)C(=O)N[C@@H](Cc4csc5ccccc45)C(=O)N[C@@H](CCC(N)=O)C(N)=O)(C3)NC(=O)[C@H](CO)NC(=O)[C@H](Cc3ccccc3)NC(=O)[C@H](C)NC(=O)[C@H](C)NC1=O)CCCC=CC[C@]1(CCCN1C(C)=O)C(=O)N[C@@H](CC(=O)O)C(=O)N[C@@H](CC(C)(C)C)C(=O)N2 (stereo partly shown) [I-966]
a: 43

q: Dear colleague, I am looking for the recorded Solubility of the following molecule: CC(=O)N1CCC[C@]12CC=CCCCC1(CCCC=CCCCCCC[C@@](C)(C(=O)N[C@@H](Cc3ccc(C(=O)O)cc3)C(=O)N[C@@H](Cc3csc4ccccc34)C(=O)N[C@@H](CCC(N)=O)C(N)=O)NC(=O)[C@H](C(C)C)NC(=O)[C@H](Cc3ccccc3)NC(=O)[C@H](C)NC(=O)[C@H](C)NC(=O)[C@H](CC(=O)O)NC(=O)[C@H](CC(=O)O)NC1=O)NC(=O)[C@H](C)NC(=O)[C@H](CC(=O)O)NC2=O (stereo partly shown) [I-340]
a: 49

q: Dear colleague, I am looking for the recorded Solubility of the following molecule: CC(=O)N1CCC[C@]12CC=CCCCC1(CCCC=CCCCOC(=O)N3CC[C@@](C(=O)N[C@@H](Cc4ccccc4)C(=O)N[C@@H](Cc4csc5ccccc45)C(=O)N[C@@H](CO)C(N)=O)(C3)NC(=O)[C@H]([C@@H](C)O)NC(=O)[C@H](Cc3cccc4ccccc34)NC(=O)[C@H](C)NC(=O)[C@H](C)NC(=O)[C@H]([C@@H](C)O)NC(=O)[C@H](CC(=O)O)NC1=O)NC(=O)[C@H](CC(C)(C)C)NC(=O)[C@H](CC(=O)O)NC2=O (stereo partly shown)
a: 10

----------
Recorded pIC50 by entry
- measurement target: full-length beta-Catenin (Uniprot ID P35222) (Homo sapiens, UniProt P35222)
- Construct: 10 nM full-length beta-Catenin (Uniprot ID P35222)
- Sequence (P35222 1-781): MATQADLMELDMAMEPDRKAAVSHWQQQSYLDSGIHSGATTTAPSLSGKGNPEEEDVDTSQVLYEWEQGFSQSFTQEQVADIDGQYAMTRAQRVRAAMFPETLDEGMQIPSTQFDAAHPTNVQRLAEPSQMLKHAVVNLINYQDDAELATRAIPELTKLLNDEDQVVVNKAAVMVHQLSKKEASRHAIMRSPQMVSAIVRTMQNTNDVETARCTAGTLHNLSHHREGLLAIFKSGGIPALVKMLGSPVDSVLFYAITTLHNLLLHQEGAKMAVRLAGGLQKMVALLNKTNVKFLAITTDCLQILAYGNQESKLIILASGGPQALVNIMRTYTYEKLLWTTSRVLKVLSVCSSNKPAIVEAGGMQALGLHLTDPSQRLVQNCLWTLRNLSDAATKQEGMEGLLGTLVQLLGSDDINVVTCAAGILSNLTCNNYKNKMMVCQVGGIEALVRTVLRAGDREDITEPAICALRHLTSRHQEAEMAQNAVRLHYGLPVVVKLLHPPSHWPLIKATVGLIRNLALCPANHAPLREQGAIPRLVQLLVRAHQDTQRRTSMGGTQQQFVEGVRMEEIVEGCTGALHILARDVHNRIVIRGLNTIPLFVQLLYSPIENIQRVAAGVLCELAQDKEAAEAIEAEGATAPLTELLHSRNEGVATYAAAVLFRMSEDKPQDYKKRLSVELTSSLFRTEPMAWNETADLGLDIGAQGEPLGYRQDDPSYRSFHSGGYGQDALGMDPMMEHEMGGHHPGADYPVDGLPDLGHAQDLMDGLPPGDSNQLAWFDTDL
- test summary: Fluorescence polarization IC50 (beta-catenin / 5FAM-TCF4 10-53 competition)
- Assay type: binding
- condition summary: fluorescence polarization; read-out: beta-Catenin FP IC50
// pIC50 is dimensionless: -log10 of concentration (M)

Some entries whose results are on file:
[[record]]
compound = "CC(=O)N1CCC[C@]12CC=CCCCC1(CCCC=CCCCCCC[C@@](C)(C(=O)N[C@@H](Cc3ccccc3)C(=O)N[C@@H](Cc3csc4ccccc34)C(=O)N[C@@H](CCC(N)=O)C(N)=O)NC(=O)[C@H](CC(N)=O)NC(=O)[C@H](Cc3ccccc3)NC(=O)[C@H](C)NC(=O)[C@H](C)NC(=O)[C@H](CC(=O)O)NC(=O)[C@H](CC(=O)O)NC1=O)NC(=O)[C@H](CC(C)(C)C)NC(=O)[C@H](CC(=O)O)NC2=O (some centres unmarked)"
measurement_target = "full-length beta-Catenin (Uniprot ID P35222) (Homo sapiens, UniProt P35222)"
measured_parameter = "pIC50"
test_value = 7.80

[[record]]
compound = "CC(=O)N1CCC[C@]12CC=CCCCC1(CCCC=CCCCOC(=O)N3CC[C@@](C(=O)N[C@@H](Cc4ccccc4)C(=O)N[C@@H](Cc4csc5ccccc45)C(=O)N[C@@H](CCC(N)=O)C(N)=O)(C3)NC(=O)[C@H](CC(C)C)NC(=O)[C@H](Cc3ccccc3)NC(=O)[C@H](C)NC(=O)[C@H](CCCCNC(C)C)NC(=O)[C@H]([C@@H](C)O)NC(=O)[C@H](CC(=O)O)NC1=O)NC(=O)[C@H](CCC(N)=O)NC(=O)[C@H](CC(N)=O)NC2=O (some centres unmarked)"
measurement_target = "full-length beta-Catenin (Uniprot ID P35222) (Homo sapiens, UniProt P35222)"
measured_parameter = "pIC50"
test_value = 5.61

[[record]]
compound = "CC(=O)N1CCC[C@]12CC=CCCCC1(CCCC=CCCCOC(=O)N3CC[C@@](C(=O)N[C@@H](Cc4ccccc4Cl)C(=O)N[C@@H](Cc4csc5ccccc45)C(=O)N[C@@H](CCC(N)=O)C(N)=O)(C3)NC(=O)[C@H](CC(C)C)NC(=O)[C@H](Cc3ccccc3)NC(=O)CNC(=O)C(C)(C)NC(=O)[C@H](Cc3cccc(C(=O)O)c3)NC(=O)[C@H](CC(=O)O)NC1=O)NC(=O)[C@H](CC(C)(C)C)NC(=O)[C@H](CC(=O)O)NC2=O (some centres unmarked)"
measurement_target = "full-length beta-Catenin (Uniprot ID P35222) (Homo sapiens, UniProt P35222)"
measured_parameter = "pIC50"
test_value = 7.59

[[record]]
compound = "CC(=O)N1CCC[C@]12CC=CCCCC1(CCCC=CCCCOC(=O)N3CC[C@@](C(=O)N[C@@H](Cc4ccccc4)C(=O)N[C@@H](Cc4csc5ccccc45)C(=O)N[C@@H](CCC(N)=O)C(N)=O)(C3)NC(=O)[C@H](CC(C)C)NC(=O)[C@H](Cc3ccccc3)NC(=O)[C@H](C)NC(=O)[C@H](CCCCNC(C)C)NC(=O)[C@H](CCCCN)NC(=O)[C@H](CC(=O)O)NC1=O)NC(=O)[C@H](CC1CCCCC1)NC(=O)[C@H](CC(N)=O)NC2=O (some centres unmarked) [I-2347]"
measurement_target = "full-length beta-Catenin (Uniprot ID P35222) (Homo sapiens, UniProt P35222)"
measured_parameter = "pIC50"
test_value = 5.25


From here, focus on the item given below.
q: Dear colleague, I am looking for the recorded pIC50 of the following compound: CC[C@H](C)[C@@H]1NC(=O)[C@H](CC(=O)O)NC(=O)[C@]2(CC=CCCCC3(CCCC=CCCCCCC[C@@](C)(C(=O)N[C@@H](Cc4ccccc4)C(=O)N[C@@H](Cc4csc5ccccc45)C(=O)N[C@@H](CCC(N)=O)C(N)=O)NC(=O)[C@H](CCC(N)=O)NC(=O)[C@H](Cc4ccccc4)NC(=O)[C@H](C)NC(=O)[C@H](C)NC(=O)[C@H](Cc4ccc(C(=O)O)cc4)NC(=O)[C@H](CC(=O)O)NC3=O)NC1=O)CCCN2C(C)=O (some centres unmarked) [I-606]
a: 6.54
